# system: CB2R (Homo sapiens, UniProt P34972)
# Construct: expressed in transfected cells; host or cells: HEK293 (ATCC), stably transfected; membrane preparation
# Sequence (P34972 whole entry): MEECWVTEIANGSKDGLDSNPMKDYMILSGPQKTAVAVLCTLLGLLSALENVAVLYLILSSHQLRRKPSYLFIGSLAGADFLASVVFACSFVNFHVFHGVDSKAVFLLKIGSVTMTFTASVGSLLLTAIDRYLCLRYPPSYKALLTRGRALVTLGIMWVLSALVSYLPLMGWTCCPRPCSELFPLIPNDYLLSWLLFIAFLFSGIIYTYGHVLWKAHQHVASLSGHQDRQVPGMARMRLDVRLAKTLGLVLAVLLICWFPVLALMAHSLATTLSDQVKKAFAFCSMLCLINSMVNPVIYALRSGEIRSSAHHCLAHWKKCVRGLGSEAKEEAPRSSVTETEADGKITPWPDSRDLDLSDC
# assay_text: Competitive radioligand binding assay, [3H]-CP55,940, HEK293 membranes
measured_endpoint: pIC50
Scale explanation: pIC50 corresponds to minus log10 of a concentration expressed in moles per litre.

Consider the molecule C=CCc1ccc(O)c(-c2ccc(OC)c(CC=C)c2)c1 [Compound 1, 4-O-methylhonokiol] and give its measured pIC50.
6.23

----------
# system: CB1R (Homo sapiens)
# Sequence (P21554 whole entry): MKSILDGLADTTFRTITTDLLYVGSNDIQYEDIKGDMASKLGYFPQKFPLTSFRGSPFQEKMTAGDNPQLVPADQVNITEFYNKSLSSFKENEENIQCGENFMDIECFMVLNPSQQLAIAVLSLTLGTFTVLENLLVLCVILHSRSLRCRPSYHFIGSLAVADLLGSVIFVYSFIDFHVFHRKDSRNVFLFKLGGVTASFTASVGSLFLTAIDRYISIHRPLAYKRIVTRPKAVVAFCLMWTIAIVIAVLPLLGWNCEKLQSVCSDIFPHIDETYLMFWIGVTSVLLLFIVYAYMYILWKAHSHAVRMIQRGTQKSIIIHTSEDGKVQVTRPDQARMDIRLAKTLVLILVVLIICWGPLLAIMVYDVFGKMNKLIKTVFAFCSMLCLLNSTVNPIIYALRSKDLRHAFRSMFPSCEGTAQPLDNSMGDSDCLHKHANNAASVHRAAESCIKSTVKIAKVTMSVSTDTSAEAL
Here, each record is paired with measured pIC50 data.
Scale explanation: pIC50 corresponds to minus log10 of a concentration expressed in moles per litre.

Record excerpt, results attached:
1. CCCc1ccc(O)c(-c2cc(CCC)ccc2O)c1 [Compound 4, tetrahydromagnolol]
4.42
2. C=CCc1ccc(O)c(-c2ccc(O)c(CC=C)c2)c1 [Compound 3, honokiol]
4.54

Consider now this further compound.
For the record C=CCc1ccc(O)c(-c2cc(CC=C)ccc2O)c1 [Compound 2, magnolol] , what value of pIC50 is listed for CB1R (Homo sapiens)?
4.45

----------
Quick note: these are pKi numbers for system: µ opioid receptor (Homo sapiens)
Sequence (P35372 whole entry): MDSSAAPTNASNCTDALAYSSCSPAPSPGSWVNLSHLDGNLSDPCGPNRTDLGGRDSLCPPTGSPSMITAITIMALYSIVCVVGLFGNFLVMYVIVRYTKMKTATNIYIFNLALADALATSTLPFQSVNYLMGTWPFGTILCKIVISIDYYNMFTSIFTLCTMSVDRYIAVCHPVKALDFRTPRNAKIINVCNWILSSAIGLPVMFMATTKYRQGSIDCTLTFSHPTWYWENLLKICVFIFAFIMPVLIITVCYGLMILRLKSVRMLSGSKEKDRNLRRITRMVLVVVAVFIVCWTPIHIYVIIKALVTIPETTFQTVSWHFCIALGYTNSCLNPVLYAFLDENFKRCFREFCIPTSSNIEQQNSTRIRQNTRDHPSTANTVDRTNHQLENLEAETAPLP
Scale explanation: pKi corresponds to minus log10 of a concentration expressed in moles per litre.

1) C=CCc1ccc(O)c(-c2ccc(O)c(CC=C)c2)c1
3.74

Consider the compound "C=CCc1ccc(O)c(-c2cc(CC=C)ccc2O)c1" and give its measured pKi.
4.27

----------
# system: CB2R (Homo sapiens, UniProt P34972)
# Construct: expressed in transfected cells; host or cells: HEK293 (ATCC), stably transfected; membrane preparation
# assay_text: Competitive radioligand binding assay, [3H]-CP55,940, HEK293 membranes
# assay_setup: 10 μM purified compounds and 2 + 3
measured_endpoint: Cannabinoid Receptors (% Displacement) CB2 (%)
Please state the figure in %; there is no need to write the unit.

1. CCCc1ccc(O)c(-c2cc(CCC)ccc2O)c1 [Compound 4, tetrahydromagnolol]
78.2
2. C=CCc1ccc(O)c(-c2cc(CC=C)ccc2O)c1 [Compound 2, magnolol]
74.7
3. CCCCCCC(C)(C)c1ccc([C@@H]2C[C@H](O)CC[C@H]2CCCO)c(O)c1 [CP55,940, reference compound]
101.3
4. C=CCc1ccc(O)c(-c2ccc(OC)c(CC=C)c2)c1 [Compound 1, 4-O-methylhonokiol]
82.2

Consider the compound C=CCc1ccc(O)c(-c2ccc(O)c(CC=C)c2)c1 [Compound 3, honokiol] and give its measured Cannabinoid Receptors (% Displacement) CB2.
65.7

----------
# system: CB2R (Homo sapiens, UniProt P34972)
# Construct: expressed in transfected cells; host or cells: HEK293 (ATCC), stably transfected; membrane preparation
# assay_text: Competitive radioligand binding assay, [3H]-CP55,940, HEK293 membranes
measured_endpoint: pKi
Scale explanation: pKi corresponds to minus log10 of a concentration expressed in moles per litre.

Consider the compound "C=CCc1ccc(O)c(-c2ccc(OC)c(CC=C)c2)c1" and give its measured pKi.
6.54

----------
# system: µ opioid receptor (Homo sapiens)
measured_endpoint: pIC50
Scale explanation: pIC50 corresponds to minus log10 of a concentration expressed in moles per litre.

1) C=CCc1ccc(O)c(-c2ccc(O)c(CC=C)c2)c1
4.04

Consider now this further molecule.
Consider the molecule "C=CCc1ccc(O)c(-c2cc(CC=C)ccc2O)c1" and give its measured pIC50.
3.97
